MEASURED ON: human PAH with the R408W mutation (Homo sapiens, UniProt P00439, R408W)
Construct: expressed in transfected cells
Sequence (P00439 1-452 R408W): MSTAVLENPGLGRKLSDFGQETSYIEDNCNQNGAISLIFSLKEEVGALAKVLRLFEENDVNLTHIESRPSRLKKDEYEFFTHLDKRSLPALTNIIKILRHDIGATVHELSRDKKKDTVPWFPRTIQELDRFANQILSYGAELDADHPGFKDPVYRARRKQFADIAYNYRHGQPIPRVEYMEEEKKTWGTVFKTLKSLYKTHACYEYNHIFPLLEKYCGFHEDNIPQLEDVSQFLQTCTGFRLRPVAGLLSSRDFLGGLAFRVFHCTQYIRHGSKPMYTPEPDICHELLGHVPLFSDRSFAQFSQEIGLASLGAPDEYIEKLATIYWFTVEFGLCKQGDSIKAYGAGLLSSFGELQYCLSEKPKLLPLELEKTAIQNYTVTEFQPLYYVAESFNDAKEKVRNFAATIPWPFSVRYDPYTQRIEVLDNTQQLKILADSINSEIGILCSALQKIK
ASSAY: Cell Based Phenylalanine Flux Assay
CONDITIONS: A375 cells expressing human R408W PAH; 24 hrs compound incubation; 13C-Tyrosine by LC-MS; average where tested multiple times; read-out: AC50
OBSERVATION TYPE: AC50

>>> recorded_value("O=C(c1nncs1)N1CCc2[nH]cnc2[C@H]1c1nc2ccc(Cl)cc2[nH]1 [Example 958]")
"500 to 1000 nM"
>>> recorded_value("C[C@H](O)c1nc(C(F)F)c(C(=O)N2CCc3[nH]cnc3[C@@H]2c2nc3c(C(F)(F)F)cccc3s2)o1 [Example 2114]")
"500 to 1000 nM"
>>> recorded_value("O=C(c1ccnn1-c1ccccn1)N1CCc2[nH]cnc2[C@H]1c1nc2c(F)cccc2s1 [Example 1757]")
"500 to 1000 nM"
>>> recorded_value("Cn1nncc1C(=O)N1CCc2[nH]cnc2[C@@H]1c1nc2c(F)cccc2s1 [Example 1726]")
"1000 to 5000 nM"
>>> recorded_value("Cn1nccc1C(=O)N1CCc2[nH]cnc2[C@H]1c1nc2c(C(F)(F)F)cccc2s1 [Example 2111]")
"500 to 1000 nM"
>>> recorded_value("O=C(c1oc(C2(O)CCC2)nc1C(F)(F)F)N1CCc2[nH]cnc2[C@@H]1c1nc2c(F)cccc2s1 [Example 1638]")
"< 500 nM"
>>> recorded_value("O=C(c1cnn2ccc(Cl)cc12)N1CCc2[nH]cnc2[C@@H]1c1nc2ccc(Br)cc2[nH]1 [Example 966]")
"> 5000 nM"
>>> recorded_value("Cc1cc(C2(C(=O)N3CCc4[nH]cnc4[C@H]3c3nc4ccccc4s3)CC2)on1 [Example 1549]")
"< 500 nM"
>>> recorded_value("N#Cc1ccn2ncc(C(=O)N3CCc4[nH]cnc4[C@H]3c3nc4c(F)cccc4s3)c2c1 [Example 1249]")
"500 to 1000 nM"
>>> recorded_value("O=C(c1conc1C(F)(F)F)N1CCc2[nH]cnc2[C@@H]1c1nc2c(F)cccc2s1 [Example 1636]")
"500 to 1000 nM"
>>> recorded_value("CC(C)(O)c1nc(C(F)F)c(C(=O)N2CCc3[nH]cnc3[C@@H]2c2nc3c(F)cccc3s2)s1 [Example 2086]")
"500 to 1000 nM"
>>> recorded_value("N#Cc1ccn2ncc(C(=O)N3CCc4[nH]cnc4[C@H]3c3nc4ccccc4s3)c2c1 [Example 1085]")
"< 500 nM"
>>> recorded_value("O=C(CC1CC1)N1CCc2[nH]cnc2[C@H]1c1nc2ccc(F)cc2[nH]1 [Example 964]")
"500 to 1000 nM"
>>> recorded_value("O=C(CC1CC1)N1CCc2[nH]cnc2[C@@H]1c1nc2ccc(Br)cc2s1 [Example 1147]")
"500 to 1000 nM"
>>> recorded_value("Cn1ncc(Cl)c1C(=O)N1CCc2[nH]cnc2[C@@H]1c1nc2c(F)cccc2s1 [Example 1734]")
"500 to 1000 nM"
>>> recorded_value("Cn1cc(-c2nnc(C(=O)N3CCc4[nH]cnc4[C@H]3c3nc4c(F)cccc4s3)o2)c(C(F)(F)F)n1 [Example 1927]")
"< 500 nM"
>>> recorded_value("Cc1nc(C(C)C)oc1C(=O)N1CCc2[nH]cnc2[C@@H]1c1nc2ccccc2s1 [Example 1398]")
"1000 to 5000 nM"
>>> recorded_value("O=C(c1cnn(CC(F)(F)F)c1C(F)F)N1CCc2[nH]cnc2[C@H]1c1nc2c(F)cccc2s1 [Example 1975]")
"1000 to 5000 nM"
>>> recorded_value("O=C(c1cnc(-c2c(F)cccc2F)s1)N1CCc2[nH]cnc2[C@@H]1c1nc2c(F)cccc2s1 [Example 1503]")
"< 500 nM"
>>> recorded_value("C[C@@H](O)c1nc(C(F)F)c(C(=O)N2CCc3[nH]cnc3[C@H]2c2nc3c(F)cccc3s2)o1 [Example 1980]")
"< 500 nM"
>>> recorded_value("O=C(c1nc2cc(F)ccc2s1)N1CCc2[nH]cnc2[C@H]1c1nc2ccccc2s1 [Example 1095]")
"500 to 1000 nM"
>>> recorded_value("O=C(c1cncs1)N1CCc2[nH]cnc2[C@@H]1c1nc2ccccc2s1 [Example 1060]")
"> 5000 nM"
>>> recorded_value("O=C(c1cnco1)N1CCc2[nH]cnc2[C@H]1c1nc2ccccc2s1 [Example 1097]")
"500 to 1000 nM"
>>> recorded_value("O=C(c1scnc1C1CC1)N1CCc2[nH]cnc2[C@H]1c1nc2ccccc2s1 [Example 1387]")
"< 500 nM"
>>> recorded_value("O=C(c1nc2ccccc2o1)N1CCc2[nH]cnc2[C@@H]1c1nc2ccccc2s1 [Example 1130]")
"1000 to 5000 nM"
>>> recorded_value("C[C@@H](O)c1nc(C(F)F)c(C(=O)N2CCc3[nH]cnc3[C@@H]2c2nc3c(F)cccc3s2)o1 [Example 1979]")
"500 to 1000 nM"
>>> recorded_value("Cc1nc(-c2cnn(C)c2)oc1C(=O)N1CCc2[nH]cnc2[C@@H]1c1nc2c(F)cccc2s1 [Example 1377]")
"> 5000 nM"
>>> recorded_value("O=C(c1nc(Cl)cs1)N1CCc2[nH]cnc2[C@H]1c1nc2ccccc2[nH]1 [Example 917]")
"500 to 1000 nM"
>>> recorded_value("O=C(c1oc(N2CCC(F)CC2)nc1C(F)F)N1CCc2[nH]cnc2[C@@H]1c1nc2ccccc2s1 [Example 1708]")
"< 500 nM"
>>> recorded_value("O=C(CC1CC1)N1CCc2[nH]cnc2[C@H]1c1nc2ccc(Br)cc2[nH]1 [Example 945]")
"< 500 nM"
>>> recorded_value("Cn1cc(C(=O)N2CCc3[nH]cnc3[C@@H]2c2nc3c(F)cccc3s2)c(Cl)n1 [Example 1643]")
"1000 to 5000 nM"
